Test system: Escherichia coli
Experiment Description: Minimal Inhibitory Concentration (MIC), two-fold dilution series in 96 well microplate
Assay type: cell-based
Run Conditions: second biocide used alone; complete inhibition of growth; 18-24 hours
// boundary case: MIC (QB), used alone equal to 20 ppm maps to Not fulfilled; strictly smaller maps to Fulfilled

Ask | Criterion: MIC (QB), used alone strictly below 20 ppm. Is it met by `O=[N+]([O-])C(Br)(CO)CO` ?
Reply | Not fulfilled

Ask | Just wondering, is MIC (QB), used alone of `CNC(=O)N(C)Cl` below 20 ppm?
Reply | Fulfilled

Ask | Hello, I'm reviewing records and need to know if MIC (QB), used alone of `NCl` is below 20 ppm. Could you check?
Reply | Not fulfilled

Ask | Consider `NC(=O)NCl` . Does its MIC (QB), used alone lie strictly below 20 ppm?
Reply | Not fulfilled

Ask | Check if MIC (QB), used alone falls below 20 ppm for OO [H2O2, hydrogen peroxide] .
Reply | Not fulfilled
